Biological target: UniProtKB P10635
Sequence (P10635 whole entry): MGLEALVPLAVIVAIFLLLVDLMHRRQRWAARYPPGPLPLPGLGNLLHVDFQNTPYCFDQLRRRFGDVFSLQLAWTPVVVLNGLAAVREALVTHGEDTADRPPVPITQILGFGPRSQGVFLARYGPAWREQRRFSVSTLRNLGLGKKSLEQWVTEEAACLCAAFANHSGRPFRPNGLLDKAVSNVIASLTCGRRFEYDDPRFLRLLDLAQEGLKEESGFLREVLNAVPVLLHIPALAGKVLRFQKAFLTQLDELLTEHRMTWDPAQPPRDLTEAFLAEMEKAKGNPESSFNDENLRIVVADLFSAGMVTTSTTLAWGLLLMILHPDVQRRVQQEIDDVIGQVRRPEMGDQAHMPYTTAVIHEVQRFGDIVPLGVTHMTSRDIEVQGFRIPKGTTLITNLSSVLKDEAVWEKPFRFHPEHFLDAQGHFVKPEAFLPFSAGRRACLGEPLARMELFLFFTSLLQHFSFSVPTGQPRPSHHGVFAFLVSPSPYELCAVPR
pIC50: −log10 of the molar value.
Reported pIC50 by item:

These solved cases illustrate the format of a correct answer.
Q: For the record `CC(C)N1CCN(Cc2ccc(-c3ccc(C(=O)N(C)C)cc3)cn2)CC1.Cl.Cl` , what value of pIC50 is listed for UniProtKB P10635?
Result: < 4.60

Q: For the record `CC(C)N1CCC(c2ccc(-c3ccc(C(=O)N4CCCC4)cc3)cn2)CC1.Cl.Cl` , what value of pIC50 is listed for UniProtKB P10635?
Result: < 4.60

For the next question, use this compound.
Q: For the record `Cc1cc(-c2ccc(CC3CCN(C4CCC4)CC3)nc2)ccn1.Cl.Cl` , what value of pIC50 is listed for UniProtKB P10635?
Result: < 4.60
